So I've got a bunch of compounds here, and I need their Interaction parameter c values.
test: Solvation interaction parameters by inverse gas-liquid chromatography (Abraham model); assay type: physicochemical; conditions: 100° C.
Lab note: jot the number down without any unit.

The measured Interaction parameter c associated with C[n+]1ccn(CCCCn2cc[n+](C)c2)c1.O=S(=O)([N-]S(=O)(=O)C(F)(F)F)C(F)(F)F.O=S(=O)([N-]S(=O)(=O)C(F)(F)F)C(F)(F)F reads −3.06

The measured Interaction parameter c associated with Cn1cc[n+](CCCCCCCCC[n+]2ccn(C)c2)c1.O=S(=O)([N-]S(=O)(=O)C(F)(F)F)C(F)(F)F.O=S(=O)([N-]S(=O)(=O)C(F)(F)F)C(F)(F)F reads −3.06

The measured Interaction parameter c associated with CCCCn1cc[n+](C)c1.O=S(=O)([N-]S(=O)(=O)C(F)(F)F)C(F)(F)F [BMIM-NTf2, reference compound] reads −3.13

The measured Interaction parameter c associated with O=S(=O)([N-]S(=O)(=O)C(F)(F)F)C(F)(F)F.O=S(=O)([N-]S(=O)(=O)C(F)(F)F)C(F)(F)F.c1ccc(Cn2cc[n+](CCCCCCCCCCCC[n+]3ccn(Cc4ccccc4)c3)c2)cc1 reads −3.12

The measured Interaction parameter c associated with C[N+]1(CCCCCCCCC[N+]2(C)CCCC2)CCCC1.O=S(=O)([N-]S(=O)(=O)C(F)(F)F)C(F)(F)F.O=S(=O)([N-]S(=O)(=O)C(F)(F)F)C(F)(F)F reads −2.99

====

experiment: Solvation interaction parameters by inverse gas-liquid chromatography (Abraham model); format: physicochemical; conditions: 40° C.
So I've got a bunch of compounds here, and I need their Interaction parameter c values.
Lab note: jot the number down without any unit.

The measured Interaction parameter c associated with CCCCn1cc[n+](C)c1.O=S(=O)([N-]S(=O)(=O)C(F)(F)F)C(F)(F)F [BMIM-NTf2, reference compound] reads −2.87

The measured Interaction parameter c associated with C[n+]1ccn(CCCCn2cc[n+](C)c2)c1.O=S(=O)([N-]S(=O)(=O)C(F)(F)F)C(F)(F)F.O=S(=O)([N-]S(=O)(=O)C(F)(F)F)C(F)(F)F reads −2.94

The measured Interaction parameter c associated with O=S(=O)([N-]S(=O)(=O)C(F)(F)F)C(F)(F)F.O=S(=O)([N-]S(=O)(=O)C(F)(F)F)C(F)(F)F.c1ccc(Cn2cc[n+](CCCCCCCCCCCC[n+]3ccn(Cc4ccccc4)c3)c2)cc1 reads −2.94

The measured Interaction parameter c associated with C[N+]1(CCCCCCCCC[N+]2(C)CCCC2)CCCC1.O=S(=O)([N-]S(=O)(=O)C(F)(F)F)C(F)(F)F.O=S(=O)([N-]S(=O)(=O)C(F)(F)F)C(F)(F)F reads −2.83

The measured Interaction parameter c associated with Cn1cc[n+](CCCCCCCCC[n+]2ccn(C)c2)c1.O=S(=O)([N-]S(=O)(=O)C(F)(F)F)C(F)(F)F.O=S(=O)([N-]S(=O)(=O)C(F)(F)F)C(F)(F)F reads −2.86

====

So I've got a bunch of compounds here, and I need their Interaction parameter c values.
experiment: Solvation interaction parameters by inverse gas-liquid chromatography (Abraham model); assay type: physicochemical; settings: 70° C.
Lab note: jot the number down without any unit.

The measured Interaction parameter c associated with C[N+]1(CCCCCCCCC[N+]2(C)CCCC2)CCCC1.O=S(=O)([N-]S(=O)(=O)C(F)(F)F)C(F)(F)F.O=S(=O)([N-]S(=O)(=O)C(F)(F)F)C(F)(F)F [C9(mpy)2-NTf2] reads −2.85

The measured Interaction parameter c associated with Cn1cc[n+](CCCCCCCCC[n+]2ccn(C)c2)c1.O=S(=O)([N-]S(=O)(=O)C(F)(F)F)C(F)(F)F.O=S(=O)([N-]S(=O)(=O)C(F)(F)F)C(F)(F)F [C9(mim)2-NTf2] reads −2.95

The measured Interaction parameter c associated with O=S(=O)([N-]S(=O)(=O)C(F)(F)F)C(F)(F)F.O=S(=O)([N-]S(=O)(=O)C(F)(F)F)C(F)(F)F.c1ccc(Cn2cc[n+](CCCCCCCCCCCC[n+]3ccn(Cc4ccccc4)c3)c2)cc1 [C12(benzim)2-NTf2] reads −3.07

The measured Interaction parameter c associated with C[n+]1ccn(CCCCn2cc[n+](C)c2)c1.O=S(=O)([N-]S(=O)(=O)C(F)(F)F)C(F)(F)F.O=S(=O)([N-]S(=O)(=O)C(F)(F)F)C(F)(F)F [C4(mim)2-NTf2] reads −2.91

The measured Interaction parameter c associated with CCCCn1cc[n+](C)c1.O=S(=O)([N-]S(=O)(=O)C(F)(F)F)C(F)(F)F [BMIM-NTf2, reference compound] reads −3.03

====

experiment: Solvation interaction parameters by inverse gas-liquid chromatography (Abraham model); format: physicochemical; settings: 100° C.
So I've got a bunch of compounds here, and I need their Interaction parameter r (interaction via nonbonding and π-electrons) values.
Lab note: jot the number down without any unit.

The measured Interaction parameter r (interaction via nonbonding and π-electrons) associated with C[n+]1ccn(CCCCn2cc[n+](C)c2)c1.O=S(=O)([N-]S(=O)(=O)C(F)(F)F)C(F)(F)F.O=S(=O)([N-]S(=O)(=O)C(F)(F)F)C(F)(F)F reads 0.20

The measured Interaction parameter r (interaction via nonbonding and π-electrons) associated with O=S(=O)([N-]S(=O)(=O)C(F)(F)F)C(F)(F)F.O=S(=O)([N-]S(=O)(=O)C(F)(F)F)C(F)(F)F.c1ccc(Cn2cc[n+](CCCCCCCCCCCC[n+]3ccn(Cc4ccccc4)c3)c2)cc1 reads 0

The measured Interaction parameter r (interaction via nonbonding and π-electrons) associated with C[N+]1(CCCCCCCCC[N+]2(C)CCCC2)CCCC1.O=S(=O)([N-]S(=O)(=O)C(F)(F)F)C(F)(F)F.O=S(=O)([N-]S(=O)(=O)C(F)(F)F)C(F)(F)F reads 0.23

The measured Interaction parameter r (interaction via nonbonding and π-electrons) associated with Cn1cc[n+](CCCCCCCCC[n+]2ccn(C)c2)c1.O=S(=O)([N-]S(=O)(=O)C(F)(F)F)C(F)(F)F.O=S(=O)([N-]S(=O)(=O)C(F)(F)F)C(F)(F)F reads 0.11

The measured Interaction parameter r (interaction via nonbonding and π-electrons) associated with CCCCn1cc[n+](C)c1.O=S(=O)([N-]S(=O)(=O)C(F)(F)F)C(F)(F)F [BMIM-NTf2, reference compound] reads 0

====

So I've got a bunch of compounds here, and I need their Interaction parameter b (hydrogen bond acidity) values.
test: Solvation interaction parameters by inverse gas-liquid chromatography (Abraham model); type: physicochemical; settings: 40° C.
Lab note: jot the number down without any unit.

The measured Interaction parameter b (hydrogen bond acidity) associated with CCCCn1cc[n+](C)c1.O=S(=O)([N-]S(=O)(=O)C(F)(F)F)C(F)(F)F [BMIM-NTf2, reference compound] reads 0.36

The measured Interaction parameter b (hydrogen bond acidity) associated with C[n+]1ccn(CCCCn2cc[n+](C)c2)c1.O=S(=O)([N-]S(=O)(=O)C(F)(F)F)C(F)(F)F.O=S(=O)([N-]S(=O)(=O)C(F)(F)F)C(F)(F)F reads 0.50

The measured Interaction parameter b (hydrogen bond acidity) associated with Cn1cc[n+](CCCCCCCCC[n+]2ccn(C)c2)c1.O=S(=O)([N-]S(=O)(=O)C(F)(F)F)C(F)(F)F.O=S(=O)([N-]S(=O)(=O)C(F)(F)F)C(F)(F)F reads 0.47

The measured Interaction parameter b (hydrogen bond acidity) associated with C[N+]1(CCCCCCCCC[N+]2(C)CCCC2)CCCC1.O=S(=O)([N-]S(=O)(=O)C(F)(F)F)C(F)(F)F.O=S(=O)([N-]S(=O)(=O)C(F)(F)F)C(F)(F)F reads 0.32

The measured Interaction parameter b (hydrogen bond acidity) associated with O=S(=O)([N-]S(=O)(=O)C(F)(F)F)C(F)(F)F.O=S(=O)([N-]S(=O)(=O)C(F)(F)F)C(F)(F)F.c1ccc(Cn2cc[n+](CCCCCCCCCCCC[n+]3ccn(Cc4ccccc4)c3)c2)cc1 reads 0.84

====

test: Solvation interaction parameters by inverse gas-liquid chromatography (Abraham model); type: physicochemical; conditions: 100° C.
Give rule met when the value for Interaction parameter l (dispersion forces) is at least 0.4. Give rule not met when it is less.

# check: Interaction parameter l (dispersion forces) of CCCCn1cc[n+](C)c1.O=S(=O)([N-]S(=O)(=O)C(F)(F)F)C(F)(F)F [BMIM-NTf2, reference compound] is greater than or equal to 0.4
rule met

# check: Interaction parameter l (dispersion forces) of C[n+]1ccn(CCCCn2cc[n+](C)c2)c1.O=S(=O)([N-]S(=O)(=O)C(F)(F)F)C(F)(F)F.O=S(=O)([N-]S(=O)(=O)C(F)(F)F)C(F)(F)F is greater than or equal to 0.4
rule not met

# check: Interaction parameter l (dispersion forces) of Cn1cc[n+](CCCCCCCCC[n+]2ccn(C)c2)c1.O=S(=O)([N-]S(=O)(=O)C(F)(F)F)C(F)(F)F.O=S(=O)([N-]S(=O)(=O)C(F)(F)F)C(F)(F)F is greater than or equal to 0.4
rule met

# check: Interaction parameter l (dispersion forces) of C[N+]1(CCCCCCCCC[N+]2(C)CCCC2)CCCC1.O=S(=O)([N-]S(=O)(=O)C(F)(F)F)C(F)(F)F.O=S(=O)([N-]S(=O)(=O)C(F)(F)F)C(F)(F)F is greater than or equal to 0.4
rule met

# check: Interaction parameter l (dispersion forces) of O=S(=O)([N-]S(=O)(=O)C(F)(F)F)C(F)(F)F.O=S(=O)([N-]S(=O)(=O)C(F)(F)F)C(F)(F)F.c1ccc(Cn2cc[n+](CCCCCCCCCCCC[n+]3ccn(Cc4ccccc4)c3)c2)cc1 is greater than or equal to 0.4
rule met

Attribution: patent US8734673B2
